Listed here are compounds together with their documented relative viability.
- Test system: NCI-H2126
- measurementProtocol: relative viability (nuclei count vs DMSO), 5 days (fraction); higher = more cells survive
- conditionSummary: first compound 4 µM
Lab note: write the figure by itself, no unit.

Hello, I am looking for reported relative viability with NCI-H2126 for C[C@@H]1CN(CC(=O)Nc2ccc3c(c2)Cc2cccc(-c4cc(=O)cc(N5CCOCC5)o4)c2S3)C[C@H](C)O1 + NC(=O)Nc1cc(-c2cccc(F)c2)sc1C(=O)N[C@H]1CCCNC1 [AZD7762] (partner 0.2 µM) . Could you help? 1.02

Hello, I am looking for reported relative viability with NCI-H2126 for Clc1ccc(Nc2nnc(Cc3ccncc3)c3ccccc23)cc1 [Vatalanib] + Cc1nc(NC(=O)N2CCC[C@H]2C(N)=O)sc1-c1ccnc(C(C)(C)C(F)(F)F)c1 [Alpelisib] (partner 2 µM) . Could you help? 0.742

Hello, I am looking for reported relative viability with NCI-H2126 for Clc1ccc(Nc2nnc(Cc3ccncc3)c3ccccc23)cc1 [Vatalanib] + C[C@]1(O)C[C@@H](c2nc(-c3ccc4ccc(-c5ccccc5)nc4c3)c3c(N)nccn32)C1 [Linsitinib] (partner 1 µM) . Could you help? 0.739

Hello, I am looking for reported relative viability with NCI-H2126 for Clc1ccc(Nc2nnc(Cc3ccncc3)c3ccccc23)cc1 [Vatalanib] + Cc1nc(Nc2ncc(C(=O)Nc3c(C)cccc3Cl)s2)cc(N2CCN(CCO)CC2)n1 [Dasatinib] (partner 0.075 µM) . Could you help? 0.503

Hello, I am looking for reported relative viability with NCI-H2126 for COc1cc(N2CCC(C(N)=O)CC2)ccc1Nc1nc(N)c(Cl)c(Nc2ccccc2S(=O)(=O)C(C)C)n1 [HG-5-88-01] + NC(=O)Nc1cc(-c2cccc(F)c2)sc1C(=O)N[C@H]1CCCNC1 [AZD7762] (partner 0.2 µM) . Could you help? 0.828

Hello, I am looking for reported relative viability with NCI-H2126 for C[C@@H]1CN(CC(=O)Nc2ccc3c(c2)Cc2cccc(-c4cc(=O)cc(N5CCOCC5)o4)c2S3)C[C@H](C)O1 + Cc1nc(NC(=O)N2CCC[C@H]2C(N)=O)sc1-c1ccnc(C(C)(C)C(F)(F)F)c1 [Alpelisib] (partner 2 µM) . Could you help? 0.762

Hello, I am looking for reported relative viability with NCI-H2126 for COc1cc(N2CCC(C(N)=O)CC2)ccc1Nc1nc(N)c(Cl)c(Nc2ccccc2S(=O)(=O)C(C)C)n1 [HG-5-88-01] + CC1(C)CCC(c2ccc(Cl)cc2)=C(CN2CCN(c3ccc(C(=O)NS(=O)(=O)c4ccc(N[C@H](CCN5CCOCC5)CSc5ccccc5)c(S(=O)(=O)C(F)(F)F)c4)cc3)CC2)C1 [Navitoclax] (partner 0.5 µM) . Could you help? 0.794

Hello, I am looking for reported relative viability with NCI-H2126 for COc1cc(N2CCC(C(N)=O)CC2)ccc1Nc1nc(N)c(Cl)c(Nc2ccccc2S(=O)(=O)C(C)C)n1 [HG-5-88-01] + Nc1ncn([C@H]2C[C@H](O)[C@@H](CO)O2)c(=O)n1 [Decitabine] (partner 2 µM) . Could you help? 0.556

====

- System: NCI-H1734
- measurementProtocol: relative viability (nuclei count vs DMSO), 5 days (fraction); higher = more cells survive
- conditionSummary: first compound 0.3162 µM
Decide using relative viability alone. Strictly below 0.5: TRUE. Equal to or above 0.5: FALSE.

Threshold test, relative viability < 0.5: CC(C)Oc1cc(Nc2nc(N[C@@H](C)c3ccc(F)cn3)ncc2Cl)n[nH]1 [AZ23] + Cc1nc(Nc2ncc(C(=O)Nc3c(C)cccc3Cl)s2)cc(N2CCN(CCO)CC2)n1 [Dasatinib] (partner 0.075 µM) TRUE

Threshold test, relative viability < 0.5: CC(C)Oc1cc(Nc2nc(N[C@@H](C)c3ccc(F)cn3)ncc2Cl)n[nH]1 [AZ23] + CC(C)C[C@H](NC(=O)[C@H](Cc1ccccc1)NC(=O)c1cnccn1)B(O)O [Bortezomib] (partner 0.002 µM) FALSE

Threshold test, relative viability < 0.5: CC(C)Oc1cc(Nc2nc(N[C@@H](C)c3ccc(F)cn3)ncc2Cl)n[nH]1 [AZ23] + CC1(C)CCC(c2ccc(Cl)cc2)=C(CN2CCN(c3ccc(C(=O)NS(=O)(=O)c4ccc(N[C@H](CCN5CCOCC5)CSc5ccccc5)c(S(=O)(=O)C(F)(F)F)c4)cc3)CC2)C1 [Navitoclax] (partner 0.5 µM) FALSE

Threshold test, relative viability < 0.5: CC(C)Oc1cc(Nc2nc(N[C@@H](C)c3ccc(F)cn3)ncc2Cl)n[nH]1 [AZ23] + O=C(CCCCCCC(=O)Nc1ccccc1)NO [Vorinostat] (partner 1 µM) FALSE

Threshold test, relative viability < 0.5: CC(C)Oc1cc(Nc2nc(N[C@@H](C)c3ccc(F)cn3)ncc2Cl)n[nH]1 [AZ23] + N=C(N)NC(=N)NCCc1ccccc1 [Phenformin] (partner 250 µM) TRUE

Threshold test, relative viability < 0.5: CC(C)Oc1cc(Nc2nc(N[C@@H](C)c3ccc(F)cn3)ncc2Cl)n[nH]1 [AZ23] + Nc1nc2[nH]cc(CCc3ccc(C(=O)N[C@@H](CCC(=O)O)C(=O)O)cc3)c2c(=O)[nH]1 [Pemetrexed] (partner 0.2 µM) TRUE

====

- Tested on: ABC-1
- measurementProtocol: relative viability (nuclei count vs DMSO), 5 days (fraction); higher = more cells survive
- conditionSummary: first compound 0.1265 µM
Listed here are compounds together with their documented relative viability.
Lab note: write the figure by itself, no unit.

COc1cc(N2CCC(C(N)=O)CC2)ccc1Nc1nc(N)c(Cl)c(Nc2ccccc2S(=O)(=O)C(C)C)n1 [HG-5-88-01] + CCNC(=O)c1noc(-c2cc(C(C)C)c(O)cc2O)c1-c1ccc(CN2CCOCC2)cc1 [Luminespib] (partner 0.01 µM)
0.86
C[C@@H]1CN(CC(=O)Nc2ccc3c(c2)Cc2cccc(-c4cc(=O)cc(N5CCOCC5)o4)c2S3)C[C@H](C)O1 + CCNC(=O)c1noc(-c2cc(C(C)C)c(O)cc2O)c1-c1ccc(CN2CCOCC2)cc1 [Luminespib] (partner 0.01 µM)
0.64
Clc1ccc(Nc2nnc(Cc3ccncc3)c3ccccc23)cc1 [Vatalanib] + Cc1nc(NC(=O)N2CCC[C@H]2C(N)=O)sc1-c1ccnc(C(C)(C)C(F)(F)F)c1 [Alpelisib] (partner 2 µM)
0.936

Read the next record carefully.
Quick one: relative viability of Clc1ccc(Nc2nnc(Cc3ccncc3)c3ccccc23)cc1 [Vatalanib] + CC(=O)c1c(C)c2cnc(Nc3ccc(N4CCNCC4)cn3)nc2n(C2CCCC2)c1=O [Palbociclib] (partner 0.5 µM) ? 0.7

====

- System: NCI-H522
- measurementProtocol: relative viability (nuclei count vs DMSO), 5 days (fraction); higher = more cells survive
- conditionSummary: first compound 0.1265 µM
metric: relative viability
Lab note: write the figure by itself, no unit.

These solved cases illustrate the format of a correct answer.
Clc1ccc(Nc2nnc(Cc3ccncc3)c3ccccc23)cc1 [Vatalanib] + Nc1ncn([C@H]2C[C@H](O)[C@@H](CO)O2)c(=O)n1 [Decitabine] (partner 2 µM)
0.685
Clc1ccc(Nc2nnc(Cc3ccncc3)c3ccccc23)cc1 [Vatalanib] + NC(=O)Nc1cc(-c2cccc(F)c2)sc1C(=O)N[C@H]1CCCNC1 [AZD7762] (partner 0.2 µM)
0.794
C[C@@H]1CN(CC(=O)Nc2ccc3c(c2)Cc2cccc(-c4cc(=O)cc(N5CCOCC5)o4)c2S3)C[C@H](C)O1 + Nc1nc2[nH]cc(CCc3ccc(C(=O)N[C@@H](CCC(=O)O)C(=O)O)cc3)c2c(=O)[nH]1 [Pemetrexed] (partner 0.2 µM)
0.89
COc1cc(N2CCC(C(N)=O)CC2)ccc1Nc1nc(N)c(Cl)c(Nc2ccccc2S(=O)(=O)C(C)C)n1 [HG-5-88-01] + CC(=O)Nc1cccc(-n2c(=O)n(C3CC3)c(=O)c3c(Nc4ccc(I)cc4F)n(C)c(=O)c(C)c32)c1 [Trametinib] (partner 0.02 µM)
0.784
COc1cc(N2CCC(C(N)=O)CC2)ccc1Nc1nc(N)c(Cl)c(Nc2ccccc2S(=O)(=O)C(C)C)n1 [HG-5-88-01] + COc1cccc2cc(-c3nc([C@H]4CC[C@H](C(=O)O)CC4)n4ncnc(N)c34)[nH]c12 [OSI-027] (partner 0.5 µM)
0.634
C[C@@H]1CN(CC(=O)Nc2ccc3c(c2)Cc2cccc(-c4cc(=O)cc(N5CCOCC5)o4)c2S3)C[C@H](C)O1 + Cc1nc(Nc2ncc(C(=O)Nc3c(C)cccc3Cl)s2)cc(N2CCN(CCO)CC2)n1 [Dasatinib] (partner 0.075 µM)
0.773

Read the next record carefully.
Quick one: relative viability of Clc1ccc(Nc2nnc(Cc3ccncc3)c3ccccc23)cc1 [Vatalanib] + O=C(c1cc(Cc2n[nH]c(=O)c3ccccc23)ccc1F)N1CCN(C(=O)C2CC2)CC1 [Olaparib] (partner 8 µM) ? 0.705
